System: A549 NSCLC
Assay: NCI tumour cell line growth inhibition, 48 h
Listed here are compounds together with their documented TGI.
// return numeric value only (unit: µM, not printed)

> print(dat)
                                 mol.smiles  measured.quantity  quantitative.result
1  Cc1cc(N(CCCl)CCCl)ccc1/C=N/NC(=O)Cc1cc(=O)oc2cc(O)ccc12                TGI                 42.2

As a next step, examine the compound that follows.
# get_value(readout='TGI', item= O=C1NN(c2ccccc2)C(=O)/C1=C/c1ccc(Br)o1 ) 44.4

---

Listed here are compounds together with their documented TGI.
Test system: RPMI-8226 leukemia
Test: NCI tumour cell line growth inhibition, 48 h

> print(dat)
                                   compound  measured.quantity    result
1  O=C1c2ccccc2-c2nc(/C=C/c3ccccc3)cc3c2c1nc1ccccc13                TGI  > 100 µM
2  C/C(=N\N=C(N)N)C(CN(C)C)C(c1ccccc1)c1c(O)c2ccccc2oc1=O (stereo unspecified)                TGI  > 100 µM
3  Cc1ccc(S(=O)(=O)N2CCNCCN(S(=O)(=O)c3ccc(C)cc3)CCN(S(=O)(=O)c3ccc(C)cc3)CC2)cc1                TGI  > 100 µM
4  COc1ccc(-c2cc(-c3cc(F)c(Cl)cc3Cl)on2)cc1OC                TGI  > 100 µM
5           CC(C)C(=O)/C=C/c1ccc(Cl)c(Cl)c1                TGI     87 µM

As a next step, examine the compound that follows.
Look up TGI with RPMI-8226 leukemia for this compound: CCc1nc2ccc(C(F)(F)F)cc2[nH]c1=O > 100 µM

---

System: OVCAR-4 ovarian
Test: NCI tumour cell line growth inhibition, 48 h
measured.quantity: TGI

Use these answered entries as a reference point.
> print(dat)
                                   compound     assay.target  measured.quantity    result
1  CC(=O)OC1Oc2ccccc2-c2oc(=O)c(-c3cc4ccccc4oc3=O)cc21 (stereo not drawn)  OVCAR-4 ovarian                TGI   50.9 µM
2     COc1ccccc1-c1cc(=O)c2ccc(OC)c(OC)c2o1  OVCAR-4 ovarian                TGI  > 100 µM
3  O=[N+]([O-])c1ccc2c(c1)c(S(=O)(=O)O)cc1nonc12  OVCAR-4 ovarian                TGI  > 100 µM

# get_value(readout='TGI', item= C=C(C)[C@@H]1CCC2=C[C@H](CC(C)=CC3=CC(C)=C(O3)[C@@H]1OC)OC2=O ) > 100 µM

# get_value(readout='TGI', item= CC(C)c1ccc(NC(=S)NC(=O)c2ccccc2)cc1 ) 55.2 µM

# get_value(readout='TGI', item= Nc1ccc(Oc2ccc(C34CC5CC6C3CC3CC4C(C5)C6(c4ccc(Oc5ccc(N)c(O)c5)cc4)C3)cc2)cc1O ) 22.2 µM

# get_value(readout='TGI', item= NC1(C(=O)O)CCCC1 ) > 625 µM

# get_value(readout='TGI', item= COc1cc2c(cn1)[nH]c1ccccc12 ) > 100 µM
